Kindly supply the reported self-aminoacylation values for the records listed here.
- Test system: biotinyl-Trp-oxazolone
- PROTOCOL_TEXT: self-aminoacylation, catalytic enhancement (BWO) (fold over background); higher = more active; k-Seq, kA / k0A0; sequences stand for … in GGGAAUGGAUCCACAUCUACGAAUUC…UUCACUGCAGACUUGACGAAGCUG
Variants at the floor of the assay were thinned out.
Answers are plain numbers.

| BIOPOLYMER_SEQUENCE | PROPERTY | MEASUREMENT |
| --- | --- | --- |
| CCACUUCAAACAAUCGGACUG [Fam1A.1 aminoacylation ribozyme variant] | self-aminoacylation | 14.9 |
| AAGCUUGCUAAUAGUCGCAAU [Fam3.1 aminoacylation ribozyme variant] | self-aminoacylation | 2.66 |
| CCAAUUCAAACAAUCGGUCUG [Fam1A.1 aminoacylation ribozyme variant] | self-aminoacylation | 5.22 |
| CUACUUCUAACAAUCGGUGUG [Fam1A.1 aminoacylation ribozyme variant] | self-aminoacylation | 0.569 |
| AUUAUCCUGGUCAUCGGGUGA [Fam2.1 aminoacylation ribozyme variant] | self-aminoacylation | 17.4 |

Please state, for each entry, its recorded self-aminoacylation.
1. CUACUUCAAGCAAUCGGUCCG [Fam1A.1 aminoacylation ribozyme variant]
2. AAGUUUGCAAAUAGUCGCAAU [Fam3.1 aminoacylation ribozyme variant]
3. AUUCACCUAGGUAAUCCGGUG [Fam2.2 aminoacylation ribozyme variant]
4. AUUCACGGAGGUCAUCGGGUG [Fam2.2 aminoacylation ribozyme variant]
5. CUUCAUCUAGGUCAUCGGGUG [Fam2.2 aminoacylation ribozyme variant]
6. AUACUUCAAACAAUCAGUCUG [Fam1A.1 aminoacylation ribozyme variant]
7. AAGUUUGCUAAAAGUCGUAAG [Fam3.1 aminoacylation ribozyme variant]
8. AUUGCCGUGGUCAUCGAGUGA [Fam2.1 aminoacylation ribozyme variant]

1. 3.02
2. 1.78
3. 4.8
4. 7.23
5. 5.49
6. 4.24
7. 6.5
8. 5.71

====

- Tested on: biotinyl-Leu-oxazolone
- PROTOCOL_TEXT: self-aminoacylation, catalytic enhancement (BLO) (fold over background); higher = more active; k-Seq, kA / k0A0; sequences stand for … in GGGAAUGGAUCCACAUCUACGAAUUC…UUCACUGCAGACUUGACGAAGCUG
Variants at the floor of the assay were thinned out.
PROPERTY: self-aminoacylation
One number for each entry.

Please state, for each entry, its recorded self-aminoacylation.
1. AUUACCCUGGCCAUAGAGUGA [Fam2.1 aminoacylation ribozyme variant]
2. CCACACAUCAAACAAUCGGUC [Fam1B.1 aminoacylation ribozyme variant]

4.73
0.749

====

- Test system: biotinyl-Phe-oxazolone
- PROTOCOL_TEXT: self-aminoacylation, catalytic enhancement (BFO) (fold over background); higher = more active; k-Seq, kA / k0A0; sequences stand for … in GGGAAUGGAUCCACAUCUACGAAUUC…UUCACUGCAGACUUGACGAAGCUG
Variants at the floor of the assay were thinned out.
Kindly supply the reported self-aminoacylation values for the records listed here.
Numbers only.

Here are 4 sequences together with their reported answers.
| BIOPOLYMER_SEQUENCE | PROPERTY | MEASUREMENT |
| --- | --- | --- |
| CCACACCUGAAGCAAUCGGUC [Fam1B.1 aminoacylation ribozyme variant] | self-aminoacylation | 0.952 |
| AUUACCCUGGUCAUGGAGUGU [Fam2.1 aminoacylation ribozyme variant] | self-aminoacylation | 3.83 |
| CUACUUCGAACAAACGGUCUG [Fam1A.1 aminoacylation ribozyme variant] | self-aminoacylation | 0.51 |
| AUCACCCUGGUCAUCGAAUGA [Fam2.1 aminoacylation ribozyme variant] | self-aminoacylation | 0.93 |

Form: sequence = CUACUUCAAGGAAUCGGUCUG [Fam1A.1 aminoacylation ribozyme variant] ; self-aminoacylation = 8.77
